- Study Target: Recombinant human urokinase-type plasminogen activator receptor (uPAR) (human)
- Experiment Summary: SPR
pIC50: −log10 of the molar value.
Endpoint Label: pIC50

# Substance, Value Reported
records = [
    ("AE105 (Asp-Cha-Phe-(D)Ser-(D)Arg-Tyr-Leu-Trp-Ser) (peptide)", 8.17),
]
